Hello, the source for this data is paper PMC6602942, in case you need it.

Biological target: UniProt:A0A0D6A8H7
Sequence (A0A0D6A8H7 entry or part of it): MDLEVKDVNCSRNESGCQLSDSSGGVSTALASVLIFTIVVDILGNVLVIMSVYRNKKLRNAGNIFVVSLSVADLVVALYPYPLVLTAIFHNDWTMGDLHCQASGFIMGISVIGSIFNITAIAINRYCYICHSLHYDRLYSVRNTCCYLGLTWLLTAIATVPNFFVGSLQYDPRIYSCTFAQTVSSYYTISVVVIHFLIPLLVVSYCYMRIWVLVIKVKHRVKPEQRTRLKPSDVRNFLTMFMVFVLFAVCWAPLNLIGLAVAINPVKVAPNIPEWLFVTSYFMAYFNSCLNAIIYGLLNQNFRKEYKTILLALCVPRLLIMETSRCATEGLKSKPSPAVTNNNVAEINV
Experiment: cAMP-responsive (CRE-luc) reporter gene assay, agonist mode
Assay type: cell-based
Conditions: MTNR1c-transfected Hepa-E1 cells, cAMP-responsive reporter; read-out: EC50 MTNR1c
pEC50: −log10 of the molar value.
PARAMETER_MEASURED: pEC50

>>> value("CC(=O)NCCc1c(Cc2ccccc2)[nH]c2ccccc12")
"< 6.00"

----------
Molecular target: medaka MTNR1a (Oryzias latipes, UniProt H2LVT7)
Sequence (H2LVT7 1-347): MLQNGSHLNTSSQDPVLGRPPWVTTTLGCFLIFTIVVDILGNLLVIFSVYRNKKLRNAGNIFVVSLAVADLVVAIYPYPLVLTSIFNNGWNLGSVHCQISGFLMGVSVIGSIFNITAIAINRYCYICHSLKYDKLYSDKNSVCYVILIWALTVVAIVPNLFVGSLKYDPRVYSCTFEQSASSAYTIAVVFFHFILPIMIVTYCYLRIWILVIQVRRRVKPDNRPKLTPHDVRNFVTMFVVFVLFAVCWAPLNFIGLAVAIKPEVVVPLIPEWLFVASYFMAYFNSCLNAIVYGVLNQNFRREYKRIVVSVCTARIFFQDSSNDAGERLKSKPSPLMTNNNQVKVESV
Test: cAMP-responsive (CRE-luc) reporter gene assay, agonist mode
Format: cell-based
pEC50: −log10 of the molar value.
PARAMETER_MEASURED: pEC50

>>> value("COc1ccc2[nH]cc(CCNC(C)=O)c2c1")
9.32
